- experiment_notes: qHTS assay to test for compound auto fluorescence at 590 nm (red) in HEK293 cell free culture (AID 720683); note: % is set by controls: 0 for no effect and ±100 for the full control effect
- study_conditions: cell-free medium autofluorescence, Ex540/Em590 red; series mostly up to 91.3 µM
The source made the active and inactive calls. Calls come from the whole dose curve; as a rule, active = well fitted curve in the direction sought with a large enough effect in the repeat runs; inconclusive = weak or mixed curves; inactive = flat fitted curve, though single readings scatter.
value_type: fluorescence, % of fluorescent control

compound	fluorescence, % of fluorescent control
CCC(C)(O)CCC=C(C)C (stereo not drawn)	inactive
CCC1(C)CC(=O)NC1=O (stereo not drawn)	inactive
c1cnc2c(n1)CCCC2	inactive
CCCCN(CCCC)C(=S)SSC(=S)N(CCCC)CCCC	inactive
O=[N+]([O-])c1cccc(S(=O)(=O)NCCNS(=O)(=O)c2cccc([N+](=O)[O-])c2)c1	inactive

Answer for every listed entry: what is its fluorescence, % of fluorescent control? The entries follow.
1. NC(=O)Cn1c(=O)cc(CCN2CCN(c3nccc4sccc34)CC2)c2ccc(F)cc21
2. c1ccc(COCc2ccccc2)cc1
3. CCOC(=O)C(C)Oc1ccc(Oc2nc3ccc(Cl)cc3o2)cc1 (stereo not drawn)
4. O=C(CCCN1CCC(O)(c2ccc(Br)cc2)CC1)c1ccc(F)cc1
5. O=C(N/N=C/c1ccc([N+](=O)[O-])o1)c1ccc(O)cc1
6. OCC1CC=CCC1 (stereo not drawn)
7. CN1CCCN=C1/C=C/c1cccs1
8. CCCCCCCCCOC(C)=O

inactive
inactive
inactive
0.118% [at 18.6 µM] (inactive)
-0.537% [at 18.6 µM] (inactive)
inactive
inactive
inactive

----------
- experiment_notes: qHTS assay to identify small molecule agonists of the vitamin D receptor (VDR) signaling pathway - cell viability counter screen (AID 743224); note: nearly all actives have a fitted effect of over 50% in size
- study_conditions: VDR-bla HEK293T viability, CellTiter-Glo luminescence, 16 h; series mostly up to 62.6 µM
Inconclusive results are not listed. Active and inactive are the calls of the source. The call rests on the fitted dose curve; in most records, active means well fitted cell-killing curve with a large enough effect in the repeat runs; inconclusive means weak or mixed curves, or effect the other way; inactive means no such curve, though single readings can be large or run the other way.
Assign a class; possible classes are label 1 for active, label 0 for inactive

Examples from the recorded data:
molecule	category_label
NC(=O)Nc1ccc(Cl)cc1	label 0
O=C(CCCN1CCN(c2ccc(F)cc2)CC1)NC1c2ccccc2CSc2ccccc21 (centres undefined)	label 1
CC(=O)CC(c1ccc([N+](=O)[O-])cc1)c1c(O)c2ccccc2oc1=O (centres undefined)	label 0

# next molecule below
Tell me the recorded outcome of this test for COC(=O)Nc1nc2ccc(C(=O)c3cccs3)cc2[nH]1 .
label 0

----------
- experiment_notes: qHTS assay to identify small molecule antagonists of the estrogen receptor alpha (ER-alpha) signaling pathway using the BG1 cell line - cell viability counter screen (AID 743081);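 note: compound given together with 17beta-estradiol as the ER stimulus; % is set by controls: 0 for no effect and ±100 for the full control effect; nearly all actives have a fitted effect of over 45% in size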
- study_conditions: BG1Luc4E2 viability, CellTiter-Fluor, 22 h; series mostly up to 70.3 µM
Results filed as inconclusive are left out. Activity calls are given as the source filed them. Calls follow the shape of the dose curve; as a rule, active = well fitted cell-killing curve with a large enough effect in the repeat runs; inconclusive = weak or mixed curves, or effect the other way; inactive = flat fitted curve, though single readings scatter.
Assign a class; possible classes are active, inactive

Examples from the recorded data:
molecule	category_label
Cc1ccccc1N1C(=O)c2cc(S(N)(=O)=O)c(Cl)cc2NC1C (stereo unspecified)	inactive
C=CC(C)(C)CC(=O)OC	inactive
CO[Si](C)(OC)OC	inactive

Tell me the recorded outcome of this test for O=C(O)Cc1ccc(-c2ccccc2)cc1 .
inactive

Try this molecule next: CCCCCCCC/C=C\CCCCCCCC(=O)OC(CO)CO
inactive

Try this molecule next: COc1ccc(C(=O)c2cccc(O)c2)c(OC)c1
inactive

Try this molecule next: CCOC(=O)[C@@H](C)Oc1ccc(Oc2nc3ccc(Cl)cc3o2)cc1
inactive

Try this molecule next: Cc1nc2ccccn2c(=O)c1CCN1CCC(C(=O)c2ccc(F)cc2)CC1
inactive

Try this molecule next: CC1=C(C=O)C(C)(C)CCC1
inactive

Try this molecule next: CCCc1c(OCCCOc2ccc(OCC(=O)O)cc2)ccc(C(C)=O)c1O
inactive

Try this molecule next: CC(C)(C)C(=O)C(Oc1ccc(Cl)cc1)n1ccnc1 (stereo unspecified)
inactive

Try this molecule next: CCCCCCOC(=O)C(C)C
inactive

Try this molecule next: CCOC(=O)CC(=O)C(=O)OCC
inactive

Try this molecule next: CC(C)(O)c1ccccc1CC[C@@H](SCC1(CC(=O)O)CC1)c1cccc(/C=C/c2ccc3ccc(Cl)cc3n2)c1
inactive

Try this molecule next: CCCOC(=O)c1ccc(N)cc1
inactive

Try this molecule next: CC(CCO)CCc1ccccc1 (stereo unspecified)
inactive

Try this molecule next: CNCCCC1c2ccccc2C=Cc2ccccc21
inactive

Try this molecule next: CCN(Cc1cccc(S(=O)(=O)O)c1)c1ccc(C(=C2C=CC(=[N+](CC)Cc3cccc(S(=O)(=O)[O-])c3)C=C2)c2ccccc2)cc1
inactive

Try this molecule next: Cc1cc2nc3ccc(=[N+](C)C)cc-3sc2cc1N
inactive

Try this molecule next: Oc1cc(O)c(Cl)cc1Cl
inactive

Try this molecule next: N#C/C(=C1\SCC(c2ccccc2Cl)S1)n1ccnc1 (stereo unspecified)
inactive

Try this molecule next: C=CC(=C)CCCC(C)(C)OC(C)=O
inactive

----------
- experiment_notes: qHTS assay to identify small molecule agonists of the TGF-beta/Smad signaling pathway - cell viability counter screen (AID 1346829); note: top concentration of the series differs between compounds; % is set by controls: 0 for no effect and ±100 for the full control effect; nearly all actives have a fitted effect of over 45% in size
- study_conditions: SBE-bla HEK293T viability, CellTiter-Glo luminescence, 5 h; series mostly up to 76.8 µM
Records with an inconclusive call do not appear. Active and inactive are the calls of the source. Calls come from the whole dose curve; as a rule, active = well fitted cell-killing curve with a large enough effect in the repeat runs; inconclusive = weak or mixed curves, or effect the other way; inactive = flat fitted curve, though single readings scatter.
value_type: activity change, negative = cytotoxicity

compound_structure_string	activity change, negative = cytotoxicity
C=CC(=C)CCCC(C)(C)OC(C)=O	inactive
COc1ccccc1N=Nc1c(S(=O)(=O)O)cc2cc(S(=O)(=O)O)cc(NC(C)=O)c2c1O	inactive
NC(=O)Cn1c(=O)cc(CCN2CCN(c3nccc4sccc34)CC2)c2ccc(F)cc21	inactive
CCCOC(=O)c1ccc(C(=O)OCCC)nc1	inactive

Shift focus to the following entry.
Item CCCCCCCCCCCC(=O)[O][Sn]([CH2]CCC)([CH2]CCC)[O]C(=O)CCCCCCCCCCC has what recorded activity change, negative = cytotoxicity?
inactive

----------
- experiment_notes: qHTS assay to identify small molecule antagonists of the retinoid-related orphan receptor gamma (ROR-gamma) signaling pathway - cell viability counter screen (AID 1159520); note: % is set by controls: 0 for no effect and ±100 for the full control effect; nearly all actives have a fitted effect of over 50% in size
- study_conditions: Tet-on RORgamma CHO cells viability, ATP luminescence, 16 h; series mostly up to 92.4 µM
Results filed as inconclusive are left out. Activity calls are given as the source filed them. Calls follow the shape of the dose curve; as a rule, active = well fitted cell-killing curve with a large enough effect in the repeat runs; inconclusive = weak or mixed curves, or effect the other way; inactive = no such curve, though single readings can be large or run the other way.
value_type: activity, negative = cytotoxicity

Reference set (5 entries):
compound	assay_result
CC#N	inactive
C[C@@H]1C[C@H]2[C@@H]3CCC4=CC(=O)C=C[C@]4(C)[C@@]3(F)[C@@H](O)C[C@]2(C)[C@H]1C(=O)CO	inactive
CCOCCn1c(C2CCN(CCc3ccc(C(C)(C)C(=O)O)cc3)CC2)nc2ccccc21	inactive
CN(C)C(=O)Nc1ccc(Oc2ccc(Cl)cc2)cc1	inactive
CCCCC(CC)C(=O)OCCOCCOCCOCCOC(=O)C(CC)CCCC (configuration not stated)	inactive

Answer for every listed entry: what is its activity, negative = cytotoxicity? The entries follow.
1. O=C(CCC1CCN(Cc2ccccc2)CC1)c1ccc2c(c1)NCCCC2
2. Nc1ccc(S(=O)(=O)O)c(N)c1

1: inactive; 2: inactive

Answer for every listed entry: what is its activity, negative = cytotoxicity? The entries follow.
1. O=C(O)c1c(O)c(-c2ccccc2)nc2ccccc12
2. C=C(C)C(=O)OCCOC(=O)CC(C)=O
3. N#C/C(=C1/SC[C@@H](c2ccc(Cl)cc2Cl)S1)n1ccnc1

1. inactive
2. inactive
3. inactive

Answer for every listed entry: what is its activity, negative = cytotoxicity? The entries follow.
1. COC(=O)c1cc(S(N)(=O)=O)ccc1OC
2. CCCCCCCC/C=C\CCCCCCCC(=O)OC
3. CC(=O)[C@H]1CC[C@H]2[C@@H]3C[C@H](C)C4=CC(=O)CC[C@]4(C)[C@H]3[C@@H](O)C[C@]12C
4. COCC(O)CO (configuration not stated)
5. CC1=CC(=O)CC(C)(C)C1(O)/C=C/C(C)=C\C(=O)O (configuration not stated)
6. CC(C)CCCCCCOC(=O)CCCCC(=O)OCCCCCCC(C)C

inactive
inactive
inactive
inactive
inactive
inactive

Answer for every listed entry: what is its activity, negative = cytotoxicity? The entries follow.
1. O=S(=O)(c1ccccc1)c1ccc(Cl)cc1
2. CCC(C(=O)OCCOCCN(CC)CC)c1ccccc1 (configuration not stated)
3. O=C(O)c1ccccc1NCCc1ccccc1
4. O=C1NCCN1
5. Cc1cc(S(=O)(=O)O)ccc1N=Nc1c(O)ccc2ccccc12

1: inactive; 2: inactive; 3: inactive; 4: inactive; 5: inactive

Answer for every listed entry: what is its activity, negative = cytotoxicity? The entries follow.
1. ON(Cc1ccccc1)Cc1ccccc1
2. C=CC(C)=CCC=C(C)C

1: inactive; 2: inactive

Answer for every listed entry: what is its activity, negative = cytotoxicity? The entries follow.
1. CCCOCCOCCO
2. CSc1ccc(Oc2ccc(S(N)(=O)=O)cc2CN(C)C)cc1C

["inactive", "inactive"]

Answer for every listed entry: what is its activity, negative = cytotoxicity? The entries follow.
1. Cc1oc(C)c(C(=O)Nc2ccccc2)c1C
2. CNC(=S)NC

1. inactive
2. inactive

Taken from PubChem BioAssay (Tox21).
